Assay: clinical
Conditions: human, in vivo, 4 mg/m2, Median Tmax
readout name: Tmax (min)
Response body: numeric value in min, unit text excluded.

Exercise: Name the recorded Tmax of the compound listed here: `Nc1ccccc1NC(=O)c1ccc(CNC(=O)OCc2cccnc2)cc1`
Key: 30

* * *

Experiment: Plasma pharmacokinetics of oral SNDX-275 in patients with advanced and refractory solid tumors or lymphoma (Example 2)
Type: in vivo
Details: human, plasma, oral, all doses 2 to 12 mg/m^2, q14-day; read-out: t1/2 Grand mean (apparent terminal half-life) (converted)
readout name: half-life (h)
Number only, in h; omit the unit.

Exercise: Given `Nc1ccccc1NC(=O)c1ccc(CNC(=O)OCc2cccnc2)cc1` , respond with its half-life.
Key: 51.7

* * *

Test: Plasma pharmacokinetics of oral SNDX-275 in adults with advanced acute leukemias (Example 3)
Type: in vivo, human
Conditions: human, plasma, oral, 8 mg/m2; 8 mg/m^2, first dose, with food, 15 patients; read-out: Tmax (median)
readout name: Tmax (h)
Report only the number, with the unit h understood.

Exercise: Please give measured Tmax of the following entry: Nc1ccccc1NC(=O)c1ccc(CNC(=O)OCc2cccnc2)cc1 [SNDX-275]
Key: 1

* * *

Test: Plasma pharmacokinetics of oral SNDX-275 in patients with advanced and refractory solid tumors or lymphoma (Example 2)
Format: in vivo
Conditions: human, plasma, oral, 2 mg/m2, 2 mg/m^2, q14-day, first dose, fed, 3 patients; read-out: t1/2 Mean (converted)
Method: The initial dosing schedule was daily oral administration for 28 days and 14-day recovery period, constituting a 42-day cycle. […] The area under the plasma concentration versus time curve (AUC) was calculated using the linear trapezoidal method from time zero to the time of the final quantifiable concentration (AUCtf). […]
readout name: half-life
Answer as a quantity: numeral, then unit.

Exercise: Name the recorded half-life of the compound listed here: `Nc1ccccc1NC(=O)c1ccc(CNC(=O)OCc2cccnc2)cc1`
Key: 80.2 h

* * *

Experiment: Plasma pharmacokinetics of oral SNDX-275 in patients with advanced and refractory solid tumors or lymphoma (Example 2)
Type: in vivo
Settings: human, plasma, oral, 8 mg/m2, 8 mg/m^2, q14-day, first dose, fed, 5 patients; read-out: t1/2 Mean (converted)
Method: The initial dosing schedule was daily oral administration for 28 days and 14-day recovery period, constituting a 42-day cycle. […] The area under the plasma concentration versus time curve (AUC) was calculated using the linear trapezoidal method from time zero to the time of the final quantifiable concentration (AUCtf). […]
readout name: half-life
// return the numeric value with its unit appended

Exercise: Look up and report measured half-life for this entry: Nc1ccccc1NC(=O)c1ccc(CNC(=O)OCc2cccnc2)cc1 [SNDX-275]
Key: 39.7 h

* * *

Experiment: Plasma pharmacokinetics of oral SNDX-275 in patients with advanced and refractory solid tumors or lymphoma (Example 2)
Assay type: in vivo
Conditions: human, plasma, oral, bi-exponential decline; read-out: T1/2 in plasma (converted)
readout name: half-life

Exercise: Return value of half-life for input `Nc1ccccc1NC(=O)c1ccc(CNC(=O)OCc2cccnc2)cc1` , no commentary.
Key: ~50 h

* * *

Experiment: Plasma pharmacokinetics of oral SNDX-275 in patients with advanced and refractory solid tumors or lymphoma (Example 2)
Format: in vivo
Details: human, plasma, oral, in some patients; read-out: earliest Tmax observed (converted)
readout name: Tmax (min)
API: value field is a number in min; no unit string.

Exercise: Answer with reported Tmax of `Nc1ccccc1NC(=O)c1ccc(CNC(=O)OCc2cccnc2)cc1`
Key: 30
